assay: NOVARTIS: Cytotoxicity against human hepatocellular carcinoma cell line (Huh7); format: toxicity, cell-based, Huh-7; settings: Huh7 cells (hepatocellular carcinoma cell line)
endpoint-name: CC50

>  <molecule>
CCN(CC)CCN(Cc1cc2c(C)cc(C)cc2[nH]c1=O)C(=S)NCCCN(C)C

>  <value-observed>
> 76.3 µM

$$$$
>  <molecule>
CN1C2CCC1/C(=C\c1ccsc1)C(=O)/C2=C\c1ccsc1

>  <value-observed>
> 10 µM

$$$$
>  <molecule>
c1ccc2[nH]c(CN(Cc3nc4ccccc4[nH]3)Cc3nc4ccccc4[nH]3)nc2c1

>  <value-observed>
26.7 µM

$$$$
>  <molecule>
CCCCN(C(=O)c1ccccc1C)c1nc(-c2cc(OC)ccc2OC)cs1

>  <value-observed>
> 100 µM

$$$$
>  <molecule>
CCCCN(C)C(=O)c1sc2ncn(CC(=O)N(CC)CC)c(=O)c2c1C

>  <value-observed>
> 10 µM

$$$$
>  <molecule>
O=[N+]([O-])c1ccc(N2CCCN(C(=S)Nc3ccc(F)cc3Br)CC2)nc1

>  <value-observed>
> 100 µM

$$$$
>  <molecule>
O=[N+]([O-])c1ccc2nc(Nc3ccccc3)c(Nc3ccccc3)nc2c1

>  <value-observed>
21.7 µM

$$$$
>  <molecule>
Cc1cccc2cc(CNC34CC5CC(CC(C5)C3)C4)c(N3CCC(N4CCC(O)CC4)CC3)nc12

>  <value-observed>
4.9 µM

$$$$
>  <molecule>
COc1ccccc1NC(=O)N(Cc1ccccc1)C(C)c1nc2ccccc2c(=O)n1-c1cc(C)ccc1OC (stereo not drawn)

>  <value-observed>
> 10 µM

$$$$
>  <molecule>
Cc1ccc(NC2=C(c3ccc(C(F)(F)F)cc3)C(=O)c3ccccc32)cc1C

>  <value-observed>
> 100 µM

$$$$
>  <molecule>
O=C(O)CSC(C(=O)Nc1ccc(Cl)cc1)c1ccccc1 (stereo not drawn)

>  <value-observed>
> 10 µM

$$$$
>  <molecule>
C[n+]1ccccc1/C=C/c1ccc(Br)cc1

>  <value-observed>
> 10 µM

$$$$
>  <molecule>
Cc1cccc(C2Sc3ccccc3N=C3c4ccccc4C(=O)C32)c1 (stereo not drawn)

>  <value-observed>
24.4 µM

$$$$

* * *

experiment: NOVARTIS: Cytotoxicity against human hepatocellular carcinoma cell line (Huh7); assay type: toxicity, cell-based, Huh-7; conditions: Huh7 cells (hepatocellular carcinoma cell line)

>  <compound>
Cc1cccc(C)c1NC(=O)N1CCN(C2CCCCC2)CC1

>  <CC50>
> 100 µM

$$$$
>  <compound>
CC(C)Nc1nc(-c2cccnc2)nc2ccccc12

>  <CC50>
> 10 µM

$$$$
>  <compound>
Oc1ccc(-c2ccccc2)cc1CN1CCC(c2ccccc2)CC1

>  <CC50>
> 100 µM

$$$$
>  <compound>
CC1CC(C)CN(C(=O)c2sc3ccccc3c2Cl)C1 (configuration not stated)

>  <CC50>
> 100 µM

$$$$
>  <compound>
CCc1cc2c(cc1-c1csc(NC(=N)N)n1)C(C)(C)CCC2(C)C

>  <CC50>
24.6 µM

$$$$
>  <compound>
CC(C)c1ccc(NC(=O)C(Cc2cccs2)c2nnn[nH]2)cc1 (configuration not stated)

>  <CC50>
> 100 µM

$$$$
>  <compound>
CC(=NNC(=O)/C(=C/c1ccc([N+](=O)[O-])cc1)NC(=O)c1ccccc1)c1ccccn1

>  <CC50>
> 10 µM

$$$$
>  <compound>
CC(C)CC1=Nc2cc(C(=O)NC(C)C)ccc2CN1Cc1ccccc1

>  <CC50>
> 10 µM

$$$$
>  <compound>
N=c1n(Cc2ccccc2)c2ccccc2n1CC(O)c1ccc(Br)cc1 (configuration not stated)

>  <CC50>
21.8 µM

$$$$
>  <compound>
COc1cc(C(C(=O)NCc2ccccc2)N(C(=O)c2snc(C(N)=O)c2N)c2ccc(C(C)C)cc2)cc(OC)c1OC (configuration not stated)

>  <CC50>
> 100 µM

$$$$
>  <compound>
O=C1CN(C(=O)COC(=O)c2ccccc2NCCc2ccc(F)cc2)c2ccccc2N1

>  <CC50>
> 10 µM

$$$$
>  <compound>
N=c1c2c(n(Cc3ccc(F)cc3)c3c1CCC3)CCC2

>  <CC50>
> 100 µM

$$$$
>  <compound>
CCOc1ccc2[nH]c(=O)c(CN(CCCN3CCOCC3)C(=S)NCCCN(CC)CC)cc2c1

>  <CC50>
> 100 µM

$$$$
>  <compound>
COc1ccc2[nH]c3c(c2c1)CCNC3c1ccc(OC)c(CSc2nnc(-c3ccccc3)o2)c1 (configuration not stated)

>  <CC50>
7.42 µM

$$$$
>  <compound>
Cc1c[nH]c(CCNCc2ccc(OCC(O)CN(C)Cc3ccccc3)cc2)n1 (configuration not stated)

>  <CC50>
54.8 µM

$$$$
>  <compound>
CCOc1ccc(CN(C(=O)C(C)(C)CCl)C(C)CCCN(CC)CC)cc1 (configuration not stated)

>  <CC50>
> 10 µM

$$$$
>  <compound>
Cc1ccc(NC(=O)c2nc[nH]c2C(=O)Nc2nc3ccccc3[nH]2)c(C)c1

>  <CC50>
> 100 µM

$$$$
